Assay: Trial 000015 Part 1: pharmacokinetics after single intranasal administration
Details: female, human, plasma, inhaled or intranasal, 200 ug, Cmax Median, single i.n. dose 200 μg, N = 6
*1 amine or outer side, *2 acyl side, *3 side chain or, on linkers, in order; H or OH if unused. Where a SMILES comes first, the peptide text is derived from it. Bridges are numbered along the chain shown (N, C = ends). [ ]: non-standard residue; d: D form. N(4-F-Bzl)Gly = O=C(O)CNCc1ccc(F)cc1; X1 = O=C(CCC[*:2])[*:1]

# Compound, Output unit, Cmax
rows = [
    ("CC[C@H](C)[C@@H]1NC(=O)[C@H](Cc2ccc(O)cc2)NC(=O)CCCSC[C@@H](C(=O)N(CC(=O)N[C@@H](CC(C)C)C(=O)NCC(N)=O)Cc2ccc(F)cc2)NC(=O)[C@H](CC(N)=O)NC(=O)[C@H](CCC(N)=O)NC1=O [merotocin] (YIQNC[N(4-F-Bzl)Gly]LG-NH2; linker N-5 via X1)", "ng/mL", 0.0999),
]
